Test system: ACHN renal
Assay: NCI tumour cell line growth inhibition, 48 h; in the data active = GI50 below about 0.43 µM; inactive = the rest
Outcomes you can answer with include only these: 1 = active, 0 = inactive

Some solved cases for reference:
Fc1ccc(-c2nnc3sc(-c4cc(Cl)cc(Cl)c4)nn23)cc1Cl
0
COc1cc(OC)cc(C2C(C#N)=C(N)Oc3c2ccc2ccc(O)cc32)c1 (centres undefined)
1
CCCCCCCCCCCC[C@H](O)[C@H]1CC[C@H]([C@H](O)CCCC[C@H](O)CCCCC[C@@H](O)CC2=C[C@H](C)OC2=O)O1
0
CC(C)=NNc1ncnc2c1ncn2C1OC(CO)C(O)C1O (centres undefined)
1
O=C(Nc1ccc(Oc2cccc(Cl)c2)c(Cl)c1)c1cnccn1
0

Any idea what this test logged for "N.N.NCCCCCCN.O=C([O-])CCl.O=C([O-])CCl.O=C([O-])CCl.O=C([O-])CCl.[Pt+4].[Pt+4]" ? 0

Same lookup for "COc1cnc2c(c1)C(=O)c1c-2n(CCCBr)c(=O)c2cc([N+](=O)[O-])ccc12" , please. 1

What would you report for "O=[N+]([O-])c1ccc2scc3c4ccccc4nc-3c2c1" ? 0

Again, but for "O=C1Nc2ccccc2C1(c1c[nH]c2ccccc12)c1c[nH]c2ccccc12" 0

---

Tested on: SK-MEL-5 melanoma
Experiment: NCI tumour cell line growth inhibition, 48 h
QUANTITY: TGI (µM)
Give bare numbers, in µM.

Record TGI per entry; entries follow.
1. COc1cc2c(cc1OCCCNC(=O)/C=C1/C[C@H]3C=Nc4cc(OCc5ccccc5)c(OC)cc4C(=O)N3C1)NC(=O)[C@@H]1CCCN1C2=O
2. COc1ccc(Cc2nc3cc([N+](=O)[O-])ccc3n2C[C@@H]2CCCN3CCCCC23)cc1 (some centres not stated)
3. COc1cccc2c1C(=O)c1c(O)c3c(c(O)c1C2=O)CC(O)(C(=O)CO)CC3OC1CC(N)C(I)C(C)O1 (configuration not stated)
4. O=[N+]([O-])c1ccc2scc3c4ccccc4nc-3c2c1

1: 68.1; 2: 27.9; 3: 14.5; 4: 3.03

For every item below, please supply its TGI.
1. ClC1=C(Cl)C(Cl)=C(Cl)C1=Cc1ccccc1
2. O=C(/C=C/c1cccc([N+](=O)[O-])c1)c1cccnc1

[2.68, 22.3]

Field: TGI. Fill in for each record below.
1. CCC[CH2][Sn]([CH2]CCC)([O]C(=O)c1ccc(C)c(N)c1)[O]C(=O)c1ccc(C)c(N)c1
2. Oc1ccc(CCl)c2cccnc12
3. O=C(O)c1sccc1O

[2.28, 35.6, 99.2]

What measured TGI is associated with "Oc1ccc(-c2cn3ccsc3n2)cc1O" on SK-MEL-5 melanoma? 26.7

---

Assign TGI to each entry below.
Test system: MOLT-4 leukemia
Assay: NCI tumour cell line growth inhibition, 48 h

Clc1ccc(CSC2=NCCN2)cc1Cl
35.9 µM
CCOC(=O)c1c(-c2ccccc2)oc(=O)c(Cc2cccc3cccnc23)c1-c1ccccc1
> 10 µM
c1cc2sc1CSCCSCCSC2
> 100 µM
c1ccc(CSSSCc2ccccc2)cc1
> 100 µM
O=C1OC(CC(=O)c2ccccc2Cl)C(Cl)=C1Cl (stereo unspecified)
> 100 µM

# query: TGI of entry "Cc1ccc(C)c(COc2cc(NC(=O)c3ccc4c(c3)OCO4)ccc2N(C)S(C)(=O)=O)c1" > 100 µM

---

Hi there, I'd appreciate the recorded TGI for every entry that follows.
System: SF-539 CNS
Experiment: NCI tumour cell line growth inhibition, 48 h

Answered examples (4):
COc1cccc(CC(C)N)c1 (stereo not given)
> 100 µM
CC(C)(C)c1ccc2c(c1)C(=O)c1ccccc1C2=O
> 100 µM
O=C(/C=C/c1cccc([N+](=O)[O-])c1)c1cccnc1
48.3 µM
CC(=O)OCC1OC(N2C(=S)N[C@H]([C@@H](O)[C@H](O)[C@H](O)CO)[C@H]2O)C(OC(C)=O)C(OC(C)=O)C1OC(C)=O (stereo not given in full)
> 100 µM

// below: TGI requested for another compound
Please give the measured TGI for this compound: COC(=O)C1=C(c2cc(OC)c(OC)c(OC)c2)OC(c2ccc3c(c2)OCO3)C1 (stereo not given) > 100 µM

---

So I've got a bunch of compounds here, and I need their TGI values.
System: HOP-92 NSCLC
Assay: NCI tumour cell line growth inhibition, 48 h
Give bare numbers, in µM.

Here's what some known entries look like.
Cn1c(/C=C/CO)c(CO)c2c1C(=O)C=C(N1CC1)C2=O
0.488
COc1ccc(NC(=S)N/N=C/c2c(C)n(C)n(-c3ccccc3)c2=O)cc1
65.4
Cc1cc(Nc2ncc(F)c(N[C@H]3[C@@H](C(N)=O)[C@@H]4C=C[C@H]3C4)n2)ccc1N1CCN(C)CC1
0.327

Look up TGI with HOP-92 NSCLC for this compound: "COc1cc2c(cc1OCCCCCN1CCN(c3cc(=O)oc4ccccc34)CC1)N=C[C@@H]1CCCN1C2=O" 0.178

---

System: NCI-H460 lung
Give your call using only these classes: active, inactive

O=C(NC1CCC(Br)CC1)C1CCCC(S(=O)(=O)NC2CCCCC2)C1 (configuration not stated)
inactive

// outcome(item) with item = "Oc1c(Cl)cc(Cl)c2ccc(Cn3cc(-c4cc(F)cc(F)c4)nn3)nc12" inactive

Ok, now "Cn1c(-c2c(N)n(Cc3ccc(C(F)(F)F)cc3)c3nc(C#N)c(C#N)nc23)nc2ccccc21" inactive

Further, for "O=C(Nc1ccc(Oc2cccc(Cl)c2)c(Cl)c1)c1cnccn1" ? active

What do you have for "COc1cc(-c2nn(-c3ccc(NC(=O)NCCCNC(=O)c4ccccc4)cc3)cc2-c2ccncc2)ccc1Cl" ? active

Check "Oc1ccc(-c2cn3ccsc3n2)cc1O" too. inactive

Also need "Cc1cc(I)cc(CN(C)CCN2CCOCC2)c1O" , thanks. inactive

Now the same for "Fc1ccc(-c2nnc3sc(-c4cc(Cl)cc(Cl)c4)nn23)cc1Cl" inactive

Continue with "COc1cc2c(cc1OCCCNC(=O)/C=C1/C[C@H]3C=Nc4cc(OCc5ccccc5)c(OC)cc4C(=O)N3C1)NC(=O)[C@@H]1CCCN1C2=O" inactive

What about this compound? "Cc1cc(Nc2ncc(F)c(N[C@H]3[C@@H](C(N)=O)[C@@H]4C=C[C@H]3C4)n2)ccc1N1CCN(C)CC1" active

What about this compound? "COc1cccc2cc(N(C)c3ncnc4ccccc34)ccc12" active

Next compound: "COc1cc(NC(=O)c2ccc(C(F)(F)F)nc2Nc2ccc(Cl)cc2C)cc(OC)c1OC" inactive

---

Tested on: EKVX NSCLC
Assay: NCI tumour cell line growth inhibition, 48 h
Please go through the items and note down their GI50.

CC/C=C\C/C=C\C[C@H]1C/C=C2/C(=O)C=C[C@@H]2C/C=C\CCC(=O)O1
1510 nM
O=C(Nc1ccc(Oc2cccc(Cl)c2)c(Cl)c1)c1cnccn1
771 nM

Consider now this further compound.
GI50 of "Cc1ccc(C)c(COc2cc(NC(=O)c3ccc4c(c3)OCO4)ccc2N(C)S(C)(=O)=O)c1" on EKVX NSCLC? 466 nM

---

Tested on: SNB-75 CNS
Assay: NCI tumour cell line growth inhibition, 48 h; in the data active = GI50 below about 0.43 µM; inactive = the rest
Log the outcome using a class from active, inactive

Cn1c(-c2c(N)n(Cc3ccc(C(F)(F)F)cc3)c3nc(C#N)c(C#N)nc23)nc2ccccc21
inactive
CC1SC(c2ccc(Cl)c(Cl)c2)N(NC(=O)C(O)c2ccccc2)C1=O (stereo not given)
inactive
Nc1c(C(=O)Nc2ccccn2)sc2nc3c(cc12)CCCCC3
inactive
COc1ccc2c(c1OC)CO[C@@H]2[C@H]1c2c(c(Br)c3c(c2OC)OCO3)CCN1C
inactive

Now take the following molecule into account.
Write down the call the test reported for this molecule. Item: "O=C(Nc1ccc(Oc2cccc(Cl)c2)c(Cl)c1)c1cnccn1" active

---

Tested on: MDA-MB-231 breast
Assay: NCI tumour cell line growth inhibition, 48 h
*1 amine or outer side, *2 acyl side, *3 side chain or, on linkers, in order; H or OH if unused. Where a SMILES comes first, the peptide text is derived from it. Bridges are numbered along the chain shown (N, C = ends). [ ]: non-standard residue; d: D form. The star is where a group is joined. Phe(3,5-F2) = N[C@@H](Cc1cc(F)cc(F)c1)C(=O)O; Pro(4R-Me) = C[C@H]1CN[C@H](C(=O)O)C1; aThr = C[C@H](O)[C@H](N)C(=O)O; Pip = O=C(O)[C@@H]1CCCCN1; X10 = Fc1cc(C2CC2)ccc1N*; Abu = CC[C@H](N)C(=O)O; CO = O=C([*:1])[*:2]
I'd be grateful if you could share measured TGI for these entries.

Please review the entries below; each comes with its answer.
CN(CCNC(=O)c1nn(-c2ccccc2)c2c1ccc1ccccc12)CCNC(=O)c1nn(-c2ccccc2)c2c1ccc1ccccc12
2.74 µM
O=C1C(=O)c2ccccc2C(O)=C1Cc1ccccc1
> 100 µM
COC(=O)C([C@H]1CC[C@H](OCc2ccccc2)[C@@]1(O)COCc1ccccc1)C(C)(O)CCc1ccccc1 (stereo partly drawn)
26.2 µM
O=C1CCC(C(=O)O)C2=C1CCCC2 (stereo not drawn)
> 100 µM
CC[C@@H]1NC(=O)[C@@H]2CCCCN2C(=O)[C@@H]2CCCN2C(=O)[C@@H](NC(=O)[C@H](Cc2cc(F)cc(F)c2)NC(=O)Nc2ccc(C3CC3)cc2F)[C@H](C)OC(=O)[C@@H]2C[C@@H](C)CN2C1=O ({X10-CO}-[Phe(3,5-F2)][aThr]P[Pip][Abu][Pro(4R-Me)]; ester 2-C)
1.5 µM
COC1=C(OC)C23CCc4ccc(OC)c(O)c4C2(CCN3)CC1=O (stereo not drawn)
> 100 µM
CC(=O)Oc1ccc2oc(=O)cc(C)c2c1
> 100 µM

Read the next record carefully.
Fill in: TGI of "COc1ccc2c(=O)c(-c3cc4c(cc3OC)OCO4)coc2c1" is ___ > 100 µM

Hey, just so you know, these numbers are from PubChem BioAssay (NCI).
